Measured Lysate ratio (HT29:Sultan/Thp1), listed per entry for reference.
Measured target: 26S proteasome CT-L activity in lysate of HT29 (constitutive) vs Sultan/Thp1 (immunoproteasome) cells (Homo sapiens, UniProt P28062+P28074)
Construct: using 26S proteasome in the context of a cell lysate; endogenous in cells; host or cells: HT29 lysate (constitutive); Sultan or THP1 lysate (immunoproteasome)
Protocol text: CT-L EC50 with 26S proteasome in cell lysate (Lysate ratio)
Format: biochemical
Cond: HT29 lysate to Sultan/Thp1 lysate, >1 = prefers immunoproteasome

Solved cases below.
CC1(C(=O)[C@H](Cc2ccccc2)NC(=O)[C@H](Cc2ccccc2)NC(=O)[C@@H](Cc2ccccc2)NC(=O)OCc2ccccc2)CO1 (stereo partly drawn) | >2.0
CC[C@H](C)C(NC(=O)[C@H](Cc1c[nH]c2ccccc12)NC(=O)[C@H](C)NC(=O)OCc1ccccc1)C(=O)C1(C)CO1 (stereo partly drawn) | <0.5

Q: I have this compound here, CC(C)C[C@H](NC(=O)OCc1ccccc1)C(=O)N[C@H](CC(C)C)C(=O)N[C@@H](Cc1ccccc1)C(=O)C1(C)CO1 (stereo partly drawn) , and I need its recorded Lysate ratio (HT29:Sultan/Thp1).
Result: <0.5

Q: I have this compound here, CC(C)C[C@H](NC(=O)CN1CCOCC1)C(=O)N[C@@H](Cc1ccccc1)C(=O)N[C@@H](CC(C)C)C(=O)C1(C)CO1 (stereo partly drawn) , and I need its recorded Lysate ratio (HT29:Sultan/Thp1).
Result: <0.5

Q: I have this compound here, CC1(C(=O)[C@H](Cc2ccccc2)NC(=O)[C@H](Cc2c[nH]c3ccccc23)NC(=O)[C@@H](NC(=O)OCc2ccccc2)c2ccccc2)CO1 (stereo partly drawn) , and I need its recorded Lysate ratio (HT29:Sultan/Thp1).
Result: >3.0

Q: I have this compound here, COc1ccc(C[C@H](NC(=O)C(C)NC(=O)OCc2ccccc2)C(=O)N[C@@H](Cc2ccc(O)cc2)C(=O)C2(C)CO2)cc1 (stereo partly drawn) [drawing 65] , and I need its recorded Lysate ratio (HT29:Sultan/Thp1).
Result: >2.0

Q: I have this compound here, COc1ccc(NC(=S)N[C@@H](CC(C)C)C(=O)N[C@@H](Cc2ccccc2)C(=O)N[C@@H](CC(C)C)C(=O)C2(C)CO2)cc1 (stereo partly drawn) , and I need its recorded Lysate ratio (HT29:Sultan/Thp1).
Result: <0.5

Q: I have this compound here, COc1ccc(C[C@H](NC(=O)C(C)NC(=O)OCc2ccccc2)C(=O)N[C@@H](Cc2ccccc2)C(=O)C2(C)CO2)cc1 (stereo partly drawn) [drawing 66] , and I need its recorded Lysate ratio (HT29:Sultan/Thp1).
Result: >3.0

====

Measured target: 20S proteasome subunit β5 vs immunoproteasome subunit LMP7 in RPMI-8226 cells (Homo sapiens, UniProt P28062+P28074)
Construct: Cells expressing approximately equivalent amounts of immuno- and constitutive proteasome (e.g., RPMI-8226) are treated with test compound; endogenous in cells; host or cells: RPMI-8226 multiple myeloma cells
Sequence (P28074 60-263): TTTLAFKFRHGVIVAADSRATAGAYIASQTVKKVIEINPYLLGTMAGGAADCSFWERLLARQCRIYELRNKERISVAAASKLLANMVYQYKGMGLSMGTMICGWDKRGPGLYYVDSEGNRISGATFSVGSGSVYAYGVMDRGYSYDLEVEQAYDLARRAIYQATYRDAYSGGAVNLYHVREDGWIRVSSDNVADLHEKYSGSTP
Sequence (P28062 73-276): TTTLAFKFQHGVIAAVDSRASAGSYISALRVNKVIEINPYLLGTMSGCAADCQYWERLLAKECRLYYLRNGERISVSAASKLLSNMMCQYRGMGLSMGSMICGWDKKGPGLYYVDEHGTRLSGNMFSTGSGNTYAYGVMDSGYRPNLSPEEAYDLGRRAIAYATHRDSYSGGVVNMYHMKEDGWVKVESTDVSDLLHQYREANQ
Protocol text: ELISA-based active site assay in RPMI-8226 cells (ELISA ratio)
Assay type: cell-based
Cond: EC50 ratio with β5 antibody to LMP7 antibody, RPMI-8226 cells; >1 = prefers immunoproteasome
Measured Elisa ratio (beta5:LMP7), listed per entry for reference.

CC(NC(=O)OCc1ccccc1)C(=O)N[C@@H](Cc1csc2ccccc12)C(=O)N[C@@H](Cc1ccccc1)C(=O)C1(C)CO1 (stereo partly shown) | >3.0

Q: I have this compound here, CC1(C(=O)[C@H](Cc2ccccc2)NC(=O)[C@H](Cc2c[nH]c3ccccc23)NC(=O)C(CSCc2ccccc2)NC(=O)OCc2ccccc2)CO1 (stereo partly shown) , and I need its recorded Elisa ratio (beta5:LMP7).
Result: >1.0

Q: I have this compound here, CC1(C(=O)[C@H](Cc2ccccc2)NC(=O)[C@H](Cc2ccccc2)NC(=O)C(CC(=O)O)NC(=O)OCc2ccccc2)CO1 (stereo partly shown) , and I need its recorded Elisa ratio (beta5:LMP7).
Result: >2.0

Q: I have this compound here, C[C@H](NC(=O)OCc1ccccc1)C(=O)N[C@@H](Cc1ccc(C(C)(C)C)cc1)C(=O)N[C@@H](Cc1ccccc1)C(=O)C1(C)CO1 (stereo partly shown) , and I need its recorded Elisa ratio (beta5:LMP7).
Result: >3.0

Q: I have this compound here, CC[C@@H](NC(=O)OCc1ccccc1)C(=O)N[C@@H](Cc1ccccc1)C(=O)N[C@@H](Cc1ccccc1)C(=O)C1(C)CO1 (stereo partly shown) , and I need its recorded Elisa ratio (beta5:LMP7).
Result: >3.0

Q: I have this compound here, CC(C)C[C@H](NC(=O)CN1CCOCC1)C(=O)N[C@@H](Cc1ccccc1)C(=O)N[C@@H](CC(C)C)C(=O)C1(C)CO1 (stereo partly shown) , and I need its recorded Elisa ratio (beta5:LMP7).
Result: <0.5

Q: I have this compound here, CC1(C(=O)[C@H](Cc2ccccc2)NC(=O)[C@H](Cc2ccccc2)NC(=O)CNC(=O)OCc2ccccc2)CO1 (stereo partly shown) , and I need its recorded Elisa ratio (beta5:LMP7).
Result: >2.0
